System: COLO 205 colon
Assay: NCI tumour cell line growth inhibition, 48 h; in the data active = GI50 below about 0.43 µM; inactive = the rest
Where a SMILES comes first, the peptide text is derived from it. [ ]: non-standard residue; d: D form. The star is where a group is joined. ξ: configuration not given here. 4Abz = Nc1ccc(C(=O)O)cc1; ξL = CC(C)CC(N)C(=O)O; NHOH = ON*
Outcomes: YES (active), NO (inactive)

Compound | Class
Nc1ccc(Cl)cc1.Nc1ccc(Cl)cc1.Nc1ccc(Cl)cc1.O=C([O-])C(=O)[O-].O=C([O-])C(=O)[O-].[H+].[Ru+5] | YES
O=C(NCCc1ccccc1)C(c1csc2ccccc12)N(C(=O)CCl)c1ccc(-c2cnco2)cc1 (stereo unspecified) | NO
COC(=O)c1ccc2c(c1)[n+](=O)c(C(C)=O)c(C(F)(F)F)n2[O-] | NO
Nc1nc(Cl)cc2c1ncn2C1OC(CO)C(O)C1O (stereo unspecified) | NO
O=C1/C(=C/c2ccc(F)cc2)CN(Cc2cn(CCNc3ccnc4cc(Cl)ccc34)nn2)C/C1=C\c1ccc(F)cc1 | NO
O=C1C=Cc2cc3ccccc3c3cccc1c23 | NO
COC(=O)C1=C(O)C(C(=O)OC)[C@@]2(O)[C@@H](C(=O)OC)C(c3ccccc3C(F)(F)F)C[C@@H]1[C@@H]2C(=O)OC (stereo partly specified) | YES
CN1CCN(c2nc(NCCNc3ccnc4cc(Cl)ccc34)c3ccccc3n2)CC1 | NO
CC(C)CC(NC(=O)[C@@H]1CCCN1C(=O)CNC(=O)c1ccc(N)cc1)C(=O)N[C@H](C)C(=O)NO (stereo partly specified) (H-[4Abz]GP[ξL][dA]-{NHOH}) | NO
CC([C@H]1CCC2C3CCC4C(=O)C(NC=O)=CC[C@]4(C)C3CC[C@@]21C)N(C)C (stereo partly specified) | NO
COc1cc(C2C3=C(COC3=O)N(CCO)c3cc4c(cc32)OCCO4)cc(OC)c1O (stereo unspecified) | NO

###

Tested on: OVCAR-4 ovarian
Assay: NCI tumour cell line growth inhibition, 48 h
Classify as follows. Reported TGI greater than or equal to 30 µM: Fulfilled. Reported TGI below: Not fulfilled.

Compound | Experimental target | Class
Cc1c(Br)cccc1NC(=O)c1sc2nc3c(cc2c1N)CN(Cc1ccccc1)CC3 | OVCAR-4 ovarian | Not fulfilled
CCCCC(=O)Nc1ccc2cc(C(=O)OC)c(=O)[nH]c2n1 | OVCAR-4 ovarian | Fulfilled
CC(C)CCC[C@@H](C)C1CCC2[C@@H]3CC=C4C[C@@H](OC(=O)CCC(=O)NCC[N+](C)(C)CCCS(=O)(=O)[O-])CC[C@]4(C)C3CC[C@@]21C (some centres not stated) | OVCAR-4 ovarian | Fulfilled
c1cc(C2O[C@H]3CCCN3[C@@H]2c2ccncc2)ccn1 (some centres not stated) | OVCAR-4 ovarian | Fulfilled
CC(C)OCC(O)COc1cc(=O)oc2ccccc12 (configuration not stated) | OVCAR-4 ovarian | Fulfilled
O=c1[nH]c(=O)n(COCCO)cc1-c1ccccc1 | OVCAR-4 ovarian | Fulfilled
CO/C=C(/C(=O)OC)c1ccccc1[C@H]1C[C@@H]1c1ccc(OC)cc1 | OVCAR-4 ovarian | Fulfilled
CCSc1sc(-c2ccc(C)cc2)nc1[P+](c1ccccc1)(c1ccccc1)c1ccccc1 | OVCAR-4 ovarian | Not fulfilled
Nc1c2c(nc3ccccc13)-c1ccccc1CCC2 | OVCAR-4 ovarian | Fulfilled
COc1ccc(/C(C#N)=C/c2nc3c(N4CCOCC4)nc(Cl)nc3n2C)cc1OC | OVCAR-4 ovarian | Not fulfilled
NCCCCN(CCCN)C(=O)OCc1ccccc1 | OVCAR-4 ovarian | Fulfilled
COc1cc(C=C2C(=O)OC(C)(C)OC2=O)cc(OC)c1OC | OVCAR-4 ovarian | Fulfilled
N.N.NCCCCN.O=C([O-])CCl.O=C([O-])CCl.O=C([O-])CCl.O=C([O-])CCl.[Pt+4].[Pt+4] | OVCAR-4 ovarian | Fulfilled
Cc1ccc(N=c2oc3c(ccc4ccccc43)nc2Nc2ccc(C)cc2)cc1 | OVCAR-4 ovarian | Fulfilled
COc1cc2[nH]c(=O)[nH]c2c2c(C)c[nH]c12 | OVCAR-4 ovarian | Fulfilled
COC(=O)/C=C1\C(=O)N(C(C)=O)c2ccccc21 | OVCAR-4 ovarian | Not fulfilled
CCCCOP(=O)(OCCCC)C(NS(=O)(=O)c1ccccc1)(C(=O)OCC)C(F)(F)F (configuration not stated) | OVCAR-4 ovarian | Fulfilled
CCCCc1ccc(Nc2nc(N)c3[nH]cnc3n2)cc1 | OVCAR-4 ovarian | Fulfilled
O=c1[nH]nc(Nc2ccccc2)c2nnn(Cc3ccccc3)c12 | OVCAR-4 ovarian | Fulfilled
O=C1NC(N2CCOCC2)=N/C1=C\c1ccccc1 | OVCAR-4 ovarian | Fulfilled
C/C(=N\NC(=S)N/N=C(\C)c1ccccn1)c1ccccn1 | OVCAR-4 ovarian | Fulfilled
CS(=O)(=O)c1nc(-c2cc3c(c(S(C)(=O)=O)n2)CCC3)cc2c1CCC2 | OVCAR-4 ovarian | Fulfilled

###

Tested on: SF-295 CNS
Assay: NCI tumour cell line growth inhibition, 48 h
Reported values of TGI for individual entries

Compound | TGI
COc1cc(OC)c(Oc2cccc(OC)c2OC)c(OC)c1 | > 100 µM
CCCCOP(=O)(OCCCC)C(NS(=O)(=O)c1ccccc1)(C(=O)OCC)C(F)(F)F (stereo unspecified) | > 100 µM
CN(C)c1ccc(C(=C2C=CC(=[N+](C)C)C=C2)c2c(O)c(S(=O)(=O)[O-])cc3cc(S(=O)(=O)O)ccc23)cc1 | > 100 µM
O=C(/C=C/c1ccccc1O)CC(=O)/C=C/c1ccccc1O | > 31.6 µM
CC1CCC(O)/C=C/C(=O)OC(C)C(O)/C=C/C(=O)O1 (stereo unspecified) | > 100 µM
Cc1cccc2c1NC(c1c(C)[nH]c3ccccc13)C2 (stereo unspecified) | > 100 µM

###

Tested on: HOP-92 NSCLC
Experiment: NCI tumour cell line growth inhibition, 48 h
Measured property: GI50

Smiles notation | Experimental result
CN1CCN(c2nc(NCCNc3ccnc4cc(Cl)ccc34)c3ccccc3n2)CC1 | 1.13 µM
COc1cc2c(cc1OC)[C@@H]1[C@H](C2=O)c2ccc([N+](=O)[O-])cc2C(=O)N1CCCBr | 3.15 µM
Nc1ccc(Cl)cc1.Nc1ccc(Cl)cc1.Nc1ccc(Cl)cc1.O=C([O-])C(=O)[O-].O=C([O-])C(=O)[O-].[H+].[Ru+5] | > 100 µM
Cc1c(Br)cccc1NC(=O)c1sc2nc3c(cc2c1N)CN(Cc1ccccc1)CC3 | 0.509 µM

###

Reported values of TGI for individual entries
Test system: MALME-3M melanoma
Test: NCI tumour cell line growth inhibition, 48 h

Compound | Limit qualifier | TGI / µM
CN(CCN(C)Cc1ccc(Cl)c(Cl)c1)CCN1CCCC1 | = | 35.8
Nc1nc(-c2ccccc2)cc(-c2ccc(F)cc2)c1-c1ccc(Cl)cc1 | > | 100
CC(C)(C)NC(=O)C12C3C4C1C1C2C3C41I (stereo unspecified) | > | 100
COc1ccc(NC(=O)CC(=O)n2nc(-c3ccccc3)c(N=Nc3ccc(C)cc3)c2-c2ccccc2)cc1 | = | 70.3
Cc1cc([C@H](C#N)c2nc3ccccc3s2)nc(Cl)n1 | = | 17
CN(C)CCNc1ccccn1 | > | 100

###

System: M14 melanoma
Experiment: NCI tumour cell line growth inhibition, 48 h

Compound | Limit qualifier | TGI [µM]
COc1ccc(/C=N\N2C(=O)Cc3ccccc32)cc1 | > | 100
COc1cc(OC)c(Oc2cccc(OC)c2OC)c(OC)c1 | > | 100
COc1cc(OC)cc(-c2n[nH]nc2-c2ccc3c(c2)OCO3)c1 | = | 12
COc1cccc(-n2cnc3c(N/N=C/c4ccncc4)ncnc32)c1 | > | 25
OCCOCn1nc(-c2ccccc2)nc1-c1cnccn1 | > | 100
S=c1sc2ccccc2n1CN1CCN(Cc2ccccc2)CC1 | > | 100
O=C(NCCc1ccc(F)cc1)c1cc(/C=C/c2cc(O)ccc2O)ccc1O | = | 12.5
Nc1nc(Cl)cc2c1ncn2C1OC(CO)C(O)C1O (stereo not given) | > | 100
COC(=O)C1=C(O)C(C(=O)OC)[C@@]2(O)[C@@H](C(=O)OC)C(c3ccc(OC(=O)C(Cc4ccccc4)NC(C)=O)cc3)C[C@@H]1[C@@H]2C(=O)OC (stereo not given in full) | = | 47.2
COC(=O)/C=C1\C(=O)N(C(C)=O)c2ccccc21 | = | 58.7
COc1cc(C(C)(C)C)c(OC(=O)/C=C/C(=O)O/C=C/[N+](=O)[O-])c(C(C)(C)C)c1 | = | 65.6
COc1cc2[nH]c(=O)[nH]c2c2c(C)c[nH]c12 | > | 100
COC(=O)c1nc(N)[nH]c(=O)c1-c1ccc(Cl)cc1 | > | 100
CO/C=C(/C(=O)OC)c1ccccc1[C@H]1C[C@@H]1c1ccc(OC)cc1 | = | 51.6
O=C1C=Cc2cc3ccccc3c3cccc1c23 | > | 100
O=C1N2CCN=C2c2ccccc2C1(O)c1ccccc1 (stereo not given) | > | 100
CC(C)OCC(O)COc1cc(=O)oc2ccccc12 (stereo not given) | > | 100
COc1cc(CNc2nc3cc(C(F)(F)F)ccc3nc2C(=O)O)cc(OC)c1OC | = | 35.7
COc1c(Cl)ccc(Cl)c1-c1nnc(-c2c(Cl)c(Cl)c(Cl)c(Cl)c2-c2nc3ccc(C(=O)c4ccccc4)cc3[nH]2)o1 | > | 100
CC(C)=CCNc1ncnc2c1ncn2C1OC(COP(=O)(O)O)C(O)C1O (stereo not given) | > | 100
O=C1CCCc2ccc3c(c21)CC1(Cc2cc4c(cc2C1)CCCC4)C3 | = | 33.2
COc1ccc(-c2ccc(/C=N/n3cnn(CN4CCN(C)CC4)c3=S)o2)c([N+](=O)[O-])c1 | = | 60.7
CCOC(=O)C(=C=Cc1cccs1)C(=O)c1ccccc1 | = | 28.2
COC(=O)c1ccc2c(c1)[n+](=O)c(C(C)=O)c(C(F)(F)F)n2[O-] | = | 3.2
CN(C)CCNc1ccccn1 | > | 100
Cc1cc(C)c(-c2noc(-c3ccc(Cl)cc3)c2C2=NCCN2)c(C)c1 | = | 27
NC(=O)c1ccc(N)nc1 | > | 400
C/C(=C/CC[C@](C)(OC1OC(CO)C(O)C(O)C1OC1OC(C)C(O)C(O)C1O)[C@H]1CC[C@]2(C)[C@@H]1CC[C@@H]1[C@@]3(C)CC[C@H](O)C(C)(C)[C@@H]3C[C@H](O)[C@]12C)CO (stereo not given in full) | > | 100
c1ccc2c3c(c(N4CCNCC4)nc2c1)CCCC3 | = | 19
O=C(O)CSc1ccn(Cc2ccccc2)c1 | > | 100
CCSc1sc(-c2ccc(C)cc2)nc1[P+](c1ccccc1)(c1ccccc1)c1ccccc1 | = | 1.51
N#CC1=C(N)NC(=S)NC1c1ccc(-c2ccc(-c3nc4ccccc4s3)cc2)o1 (stereo not given) | > | 50
O=c1c2ccccc2oc2nccnc12 | > | 100
O=C(/C=C/c1ccco1)c1ccc(Nc2ccnc3cc(Cl)ccc23)cc1 | > | 100
CS(=O)(=O)c1ccc(C2=C(c3ccccc3)C(=O)OC2)cc1 | > | 100
